Test: gradient 5% acetonitrile 3 min, to 50% in 2 min, to 85% in 15 min, held 3 min, 100 µL/min
Conditions: column: Zorbax Extend-C18 2.1 x 50 mm; eluents: water / acetonitrile, 0.1% formic acid
metric: RP-LC retention time (s)
Give bare numbers, in s.

Example results:
compound	RP-LC retention time [s]
COc1ccc(C(=O)c2cnc3ccc(OC)cc3c2N2CCN(C)CC2)cc1	561
COc1cc(OC)c(NC(=O)C(C)Oc2ccc(=O)n(-c3ccc(F)cc3)n2)cc1Cl (stereo not given)	844
NC(=O)c1nc(-c2ccccc2F)n2c1CCCCC2	722
Cc1cc(C(=O)NC(C)C)c2cc(Cl)ccc2n1	718
CCC(C)NC(=O)C1CCN(c2cncnc2N2CCCC2)CC1 (stereo not given)	608

// input: 3 compounds below; output: RP-LC retention time for each
1. CCC1CN2C=NC(N3CCN(C(=O)Nc4ccccc4Cl)CC3)=CC2=N1 (stereo not given)
2. COC(=O)CCN(C(=O)c1ccc(OC(C)=O)cc1)c1ccccn1
3. CCc1nn2c(CNS(=O)(=O)c3ccc(F)cc3F)c(-c3ccccc3)nc2s1

[814, 668, 942]

Batch: RP-LC retention time for all items listed.
1. O=c1c(=O)n(-c2cccc(Cl)c2)ccn1Cc1nc(-c2ccccc2)no1
2. CCn1cc(S(=O)(=O)NCc2cccc(C)c2)c2cccnc21

1. 875
2. 845

----------
Test: gradient 5% acetonitrile 3 min, to 50% in 2 min, to 85% in 15 min, held 3 min, 100 µL/min
Conditions: column: Zorbax Extend-C18 2.1 x 50 mm; eluents: water / acetonitrile, 0.1% formic acid
Field: label. Allowed values: satisfied (RP-LC retention time < 900 s) or not satisfied (RP-LC retention time >= 900 s).

Here's what some known entries look like.
compound	discreteLabel
CCc1ccc(NC(=O)Cn2c(C(C)C)nc3c(c2=O)CCN(Cc2ccccc2)C3)cc1	satisfied
O=C(Nc1nc(-c2ccc3ccccc3c2)cs1)c1cccc(Cn2cc(Cl)cn2)c1	not satisfied
CCc1nn(CC(=O)N2CCC(C(N)=O)CC2)c(=O)c2cc3occc3n12	satisfied
COc1ccc(NC(=O)CC2=C3CCCCC3NC2=O)cn1 (stereo not given)	satisfied
O=C(Nc1c(C(=O)Nc2ccccc2F)oc2ccccc12)c1ccc(Br)o1	not satisfied
Cc1ccc(C)c(NC(=O)C2CCc3nc(N4CCOCC4)ncc3C2)c1 (stereo not given)	satisfied

Now take the following compound into account.
# TODO verify RP-LC retention time < 900 s strictly for this compound: COc1ccc(CNC(=O)C2=C3CCCN3c3ccccc3S2(=O)=O)cc1
satisfied

----------
Assay: gradient 5% acetonitrile 3 min, to 50% in 2 min, to 85% in 15 min, held 3 min, 100 µL/min
Details: column: Zorbax Extend-C18 2.1 x 50 mm; eluents: water / acetonitrile, 0.1% formic acid
metric: RP-LC retention time (s)
Numbers only, in s.

// known answers, use as guide
compound	unitsLabel	RP-LC retention time
CC(C)NC(=O)CC1CCN(C(=O)c2cc3cc(Cl)ccc3[nH]2)CC1	s	773
COc1ccc(Cl)cc1NC(=O)N1CCC(OC2CCN(S(C)(=O)=O)CC2)CC1	s	811

List RP-LC retention time for every entry below, keeping the order given.
1. COc1c(C(=O)NC(C)C)sc2ccc(F)cc12
2. Cc1ccc(C(=O)COc2ccc(N3C(=O)C4CCC(C)CC4C3=O)cc2)cc1C (centres undefined)

[952, 1120]

State the recorded RP-LC retention time for every item in the following list.
1. Cc1ccccc1CNC(=O)C1(C)CCN(S(=O)(=O)c2cccc(Cl)c2C)CC1
2. CCn1c(=O)oc2cc(-c3noc(-c4n[nH]c5c4CCCC5)n3)ccc21

1: 1090; 2: 914

For every item below, please supply its RP-LC retention time.
1. O=S(=O)(Cc1ccc(Cl)cc1)c1nc2ccccc2nc1N1CCOCC1
2. CN1C(=O)C(CC(=O)N2CCCC2)Sc2ncccc21 (centres undefined)
3. O=C(c1ccc(-c2cncnc2)nc1)N1CCN(c2ccccc2)CC1
4. Cc1ccccc1NC(=O)N1CCN(c2nc(N3CCOCC3)nc(-n3ccnc3)n2)CC1
5. Cc1nnc(-c2ccc3ccn(CC(=O)Nc4ncccc4C)c3c2)o1

1: 756; 2: 626; 3: 716; 4: 603; 5: 618

For each of the items listed, what is its RP-LC retention time?
1. CC(C)Cn1cc(S(=O)(=O)NC2CCCCCC2)c2cccnc21
2. CCN1C(=O)COc2ccc(-c3nc(NC(=O)c4cccc(C)c4)sc3C)cc21
3. CCOCCCNC(=O)CN1c2ccc(F)cc2-c2ccccc2S1(=O)=O

1. 1060
2. 682
3. 820

// for each compound in input: emit RP-LC retention time
1. Cc1ccc(-c2noc(CCN3CCN(c4ccccn4)CC3)n2)cc1
2. COc1ccc(C(=O)Nc2nc(-c3ccccc3)cs2)cc1OC
3. CCOC(=O)N1CCN(c2cc(C(=O)O)c3cc(NC(=O)c4cccc(C)c4)ccc3n2)CC1
4. CCN(CC)S(=O)(=O)c1ccc(-n2cnc(C(=O)Nc3cc(C(C)(C)C)ccc3O)c2)cc1
5. C=CCn1nnnc1NCc1ccc2c(c1)n(C)c(=O)n2C
6. O=C(N[C@@H]1CN(c2ccncn2)C[C@H]1CO)c1ccc2ccccc2n1
7. CCOc1ccc(CC(=O)OCn2nnc3ccccc3c2=O)cc1
8. CCS(=O)(=O)Nc1ccc(-c2noc(CNC(=O)c3ccccc3)n2)cc1

[625, 961, 649, 1060, 609, 604, 914, 744]

Hi! Can you tell me RP-LC retention time for each of these compounds?
1. O=C(CC1OC(=O)c2ccccc21)c1ccc(Br)cc1 (centres undefined)
2. O=C(Cn1cccc1-c1nnc(-c2ccccc2)o1)NCc1ccccc1
3. CCc1nn2c(CNC(=O)c3ccc(C(F)(F)F)cc3)c(-c3ccccc3)nc2s1
4. O=C(NCCC1CCN(C(=O)Nc2ccc(F)cc2)CC1)c1ccco1

[905, 882, 1020, 718]

For every item in the list below, what is its measured RP-LC retention time?
1. CCOc1ccc(CN2CCc3nc(N4CCOCC4)ncc3C2)cc1OCC
2. CC(C)Cn1cc(S(=O)(=O)N2CCN(c3ccccc3Cl)CC2)c2cccnc21
3. Cn1c(=O)n(C)c2cc(S(=O)(=O)C3CCCCC3)c(NC(=O)c3c(F)cccc3F)cc21
4. O=C1CCCc2cc(S(=O)(=O)N3CCN(c4cccc(Cl)c4)CC3)ccc2N1
5. CC1CCN(S(=O)(=O)c2cc(-c3ccc(N4CCCC(C)C4)nn3)cs2)CC1 (centres undefined)
6. O=[N+]([O-])c1c(NCCCO)cc(Nc2ccc(F)cc2)c2nonc12
7. CCNC(=O)c1n[nH]c2c1CN(C(=O)c1ccc3c(c1)OCO3)CC2

1: 577; 2: 1220; 3: 914; 4: 928; 5: 915; 6: 676; 7: 634

Please state, for each entry, its recorded RP-LC retention time.
1. CCCNC(=O)N(C1CCOCC1)C1CCN(S(=O)(=O)c2ccccc2CC)CC1
2. CCCc1nnc(SCC(=O)NC2CCCCCC2)n1-n1cccc1
3. COc1ccc(OC)c(NC(=O)c2cnn(-c3ccc(Cl)cc3)c2)c1
4. Cc1cc(C)cc(NC(=O)N2CC(c3nc(C)no3)C3(CCOCC3)C2)c1 (centres undefined)
5. Cc1noc(-c2ccnc(-n3cnc(C(=O)NCCc4ccc(Cl)cc4)c3)c2)n1
6. CC1=C(c2ccccc2)S(=O)(=O)N=C1N1CCC(NC(=O)C2CCC2)CC1

[899, 831, 991, 706, 683, 753]

Just for reference, the METLIN SMRT retention time set (Domingo-Almenara et al. 2019) is where these values come from.
